target: Hypoxia-inducible factor 1-alpha (Homo sapiens, UniProt Q16665); experiment: Inhibition of hypoxia-induced HIF1alpha transcriptional activity in human Hep3B cells after 24 hrs in hypoxic condition by HRE-dependent dual luciferase reporter gene assay
Sequence (Q16665 whole entry): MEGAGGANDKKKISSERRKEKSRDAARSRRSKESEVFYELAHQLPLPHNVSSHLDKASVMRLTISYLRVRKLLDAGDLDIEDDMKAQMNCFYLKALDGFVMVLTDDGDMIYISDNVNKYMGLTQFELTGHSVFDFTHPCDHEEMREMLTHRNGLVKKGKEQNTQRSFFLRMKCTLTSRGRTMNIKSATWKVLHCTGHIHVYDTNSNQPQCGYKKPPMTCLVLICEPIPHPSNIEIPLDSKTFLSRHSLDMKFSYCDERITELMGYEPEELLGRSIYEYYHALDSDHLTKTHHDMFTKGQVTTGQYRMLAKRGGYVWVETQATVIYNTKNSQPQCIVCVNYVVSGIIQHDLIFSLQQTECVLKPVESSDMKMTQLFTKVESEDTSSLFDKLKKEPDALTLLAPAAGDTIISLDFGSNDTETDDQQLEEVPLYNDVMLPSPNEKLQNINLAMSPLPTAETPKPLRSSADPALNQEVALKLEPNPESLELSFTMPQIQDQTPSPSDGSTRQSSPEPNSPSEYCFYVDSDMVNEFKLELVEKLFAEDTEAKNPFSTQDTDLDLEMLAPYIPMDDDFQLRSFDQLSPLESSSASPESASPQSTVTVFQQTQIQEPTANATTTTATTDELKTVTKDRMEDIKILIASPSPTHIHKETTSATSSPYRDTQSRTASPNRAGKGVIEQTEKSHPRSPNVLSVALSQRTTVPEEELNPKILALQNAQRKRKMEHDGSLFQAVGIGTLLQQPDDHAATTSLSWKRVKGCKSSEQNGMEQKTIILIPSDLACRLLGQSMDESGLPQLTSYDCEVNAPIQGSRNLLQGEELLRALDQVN
pIC50: −log10 of the molar value.
Outcome label depends on pIC50 relative to 5: at/above gives Satisfied, below gives Not satisfied.

Is it the case that C[C@H]1[C@H](C)CC[C@]2(C(=O)OCCCn3nnnc3-c3ccccc3)CC[C@]3(C)C(=CC[C@@H]4[C@@]5(C)CC[C@H](O)C(C)(C)[C@@H]5CC[C@]43C)[C@H]12 has pIC50 reaching or exceeding 5?
Not satisfied

Thanks! And C[C@H]1[C@H](C)CC[C@]2(C(=O)OCCCNc3nnn[nH]3)CC[C@]3(C)C(=CC[C@@H]4[C@@]5(C)CCC(=O)C(C)(C)[C@@H]5CC[C@]43C)[C@H]12 ?
Not satisfied

Thanks! And C[C@H]1[C@H](C)CC[C@]2(C(=O)Nc3nnn[nH]3)CC[C@]3(C)C(=CC[C@@H]4[C@@]5(C)CC[C@H](OC(=O)C(F)(F)F)C(C)(C)[C@@H]5CC[C@]43C)[C@H]12 ?
Satisfied

Thanks! And C[C@H]1[C@H](C)CC[C@]2(C(=O)OCCNc3nnn[nH]3)CC[C@]3(C)C(=CC[C@@H]4[C@@]5(C)CCC(=O)C(C)(C)[C@@H]5CC[C@]43C)[C@H]12 ?
Not satisfied

Thanks! And C[C@H]1[C@H](C)CC[C@]2(C(=O)OCCCNc3cccc(-c4nnn[nH]4)c3)CC[C@]3(C)C(=CC[C@@H]4[C@@]5(C)CCC(=O)C(C)(C)[C@@H]5CC[C@]43C)[C@H]12 ?
Not satisfied

Thanks! And C[C@H]1[C@H](C)CC[C@]2(C(=O)O)CC[C@]3(C)C(=CC[C@@H]4[C@@]5(C)CC[C@H](O)C(C)(C)[C@@H]5CC[C@]43C)[C@H]12 ?
Not satisfied

Thanks! And C[C@H]1[C@H](C)CC[C@]2(C(=O)Nc3nnn[nH]3)CC[C@]3(C)C(=CC[C@@H]4[C@@]5(C)CCC(=O)C(C)(C)[C@@H]5CC[C@]43C)[C@H]12 ?
Not satisfied

Thanks! And CCCC(=O)O[C@H]1CC[C@]2(C)[C@H]3CC=C4[C@@H]5[C@@H](C)[C@H](C)CC[C@]5(C(=O)Nc5nnn[nH]5)CC[C@@]4(C)[C@]3(C)CC[C@H]2C1(C)C ?
Satisfied

Thanks! And C[C@H]1[C@H](C)CC[C@]2(C(=O)Nc3nnn[nH]3)CC[C@]3(C)C(=CC[C@@H]4[C@@]5(C)CC/C(=N\Nc6ccccc6)C(C)(C)[C@@H]5CC[C@]43C)[C@H]12 ?
Satisfied

Thanks! And COc1ccc(-c2nnnn2CCCOC(=O)[C@]23CC[C@@H](C)[C@H](C)[C@H]2C2=CC[C@@H]4[C@@]5(C)CC[C@H](O)C(C)(C)[C@@H]5CC[C@@]4(C)[C@]2(C)CC3)cc1 ?
Not satisfied

Thanks! And C[C@H]1[C@H](C)CC[C@]2(C(=O)OCCNc3ccccc3-c3nnn[nH]3)CC[C@]3(C)C(=CC[C@@H]4[C@@]5(C)CC[C@H](O)C(C)(C)[C@@H]5CC[C@]43C)[C@H]12 ?
Not satisfied

Thanks! And C[C@H]1[C@H](C)CC[C@]2(C(=O)OCCCNc3ccccc3-c3nnn[nH]3)CC[C@]3(C)C(=CC[C@@H]4[C@@]5(C)CC[C@H](O)C(C)(C)[C@@H]5CC[C@]43C)[C@H]12 ?
Not satisfied

Thanks! And C[C@H]1[C@H](C)CC[C@]2(C(=O)OCCNc3ccc(-c4nnn[nH]4)cc3)CC[C@]3(C)C(=CC[C@@H]4[C@@]5(C)CC[C@H](O)C(C)(C)[C@@H]5CC[C@]43C)[C@H]12 ?
Not satisfied

* * *

target: Hypoxia-inducible factor 1-alpha (Homo sapiens, UniProt Q16665); assay: Inhibition of hypoxia-induced HIF1alpha transcriptional activity in human Hep3B cells after 24 hrs in hypoxic condition by HRE-dependent dual luciferase reporter gene assay
Would you mind telling me the reported pIC50 of each entry?
For clarity, pIC50 is expressed as the negative log10 of concentration in mol/L.

Which pIC50 reading was recorded for the molecule C[C@H]1[C@H](C)CC[C@]2(C(=O)Nc3nnn[nH]3)CC[C@]3(C)C(=CC[C@@H]4[C@@]5(C)CC[C@H](O)C(C)(C)[C@@H]5CC[C@]43C)[C@H]12 ?
4.88

Thanks! And C[C@H]1[C@H](C)CC[C@]2(C(=O)OCCCn3nnnc3-c3ccc(Cl)cc3)CC[C@]3(C)C(=CC[C@@H]4[C@@]5(C)CC[C@H](O)C(C)(C)[C@@H]5CC[C@]43C)[C@H]12 ?
5.12

Thanks! And C[C@H]1[C@H](C)CC[C@]2(C(=O)OCCCNc3nnn[nH]3)CC[C@]3(C)C(=CC[C@@H]4[C@@]5(C)CC[C@H](O)C(C)(C)[C@@H]5CC[C@]43C)[C@H]12 ?
4.99
